Source listed as PubChem BioAssay AID1963976.

tested on: 435261-313-R-J1-PDC tumor spheroid viability; assay: Anticancer human tumor 435261-313-R-J1-PDC patient-derived colon adenocarcinoma cell line growth inhibition [PI3K]; settings: second compound 1 µM; first compound 0.00316 µM; hits give low values; spheroids with HUVEC and MSC;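 note: spheroids exposed to compounds for 7 days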
Response field label: string, one of class 1 (viability, T/C strictly below 80%) or class 0.

The following compounds have reported results that may help.
Input: Is the reported viability, T/C for CC(C)n1nc(-c2ccc3oc(N)nc3c2)c2c(N)ncnc21 + Cc1nc(NC(=O)N2CCCC2C(N)=O)sc1-c1ccnc(C(C)(C)C(F)(F)F)c1 strictly below 80%?
Output: class 1

Input: # TODO verify viability, T/C < 80% strictly for this compound: CC(C)n1nc(-c2ccc3oc(N)nc3c2)c2c(N)ncnc21 + COc1c(OCCCN2CCOCC2)ccc2c3n(c(=NC(=O)c4cnc(N)nc4)nc12)CCN3
Output: class 1

Input: Item CC(=O)c1c(C)c2cnc(Nc3ccc(N4CCNCC4)cn3)nc2n(C2CCCC2)c1=O + Cc1nc(NC(=O)N2CCCC2C(N)=O)sc1-c1ccnc(C(C)(C)C(F)(F)F)c1 : viability, T/C beneath 80%, strictly?
Output: class 1

Input: Just wondering, is viability, T/C of Cn1ncnc1[C@H]1c2n[nH]c(=O)c3cc(F)cc(c23)N[C@@H]1c1ccc(F)cc1 + Cc1nc(NC(=O)N2CCCC2C(N)=O)sc1-c1ccnc(C(C)(C)C(F)(F)F)c1 below 80%?
Output: class 1

Now, please, on to the next compound.
Input: Hello, I'm reviewing records and need to know if viability, T/C of CCN1CCN(Cc2ccc(Nc3ncc(F)c(-c4cc(F)c5nc(C)n(C(C)C)c5c4)n3)nc2)CC1 + CC(Nc1ncnc2nc[nH]c12)c1cc2cccc(Cl)c2c(=O)n1-c1ccccc1 is below 80%. Could you check?
Output: class 0
